test_protocol: qHTS assay for small molecule agonists of the antioxidant response element (ARE) signaling pathway (AID 743202)
protocol_conditions: HepG2 ARE-bla reporter, beta-lactamase FRET, 16 h; series mostly up to 73.3 µM
Results filed as inconclusive are left out. Active and inactive are the calls of the source. Calls come from the whole dose curve; as a rule, active = well fitted activation curve with a large enough effect in the signal ratio in the repeat runs (not every such curve was filed as active); inconclusive = weak or mixed curves, or effect the other way; inactive = no such curve, though single readings can be large or run the other way; the % refers to the signal ratio.
One label from this list, please: TRUE for active, FALSE for inactive

Q: What did this assay record as the result for `Cc1ccc(O)c2ncccc12` ?
A: TRUE

Q: Hi, do you know how `O=C1c2ccccc2Cc2ccccc21` came out in this test?
A: FALSE

Q: Give the logged outcome of this assay for the following compound: `CC(C)=CCOc1ccc(/C=C/C(=O)c2ccc(OCC=C(C)C)cc2OCC(=O)O)cc1`
A: TRUE

Q: Write down the call the test reported for this compound. Item: `CC(C)(C)c1ccc(C(=O)O)cc1`
A: FALSE

Q: Please let me know the test result on file for `NNC(=O)c1cccc(C(=O)NN)c1` .
A: FALSE

Q: Dear colleague, could you share the recorded outcome for `NNc1nc(-c2ccc([N+](=O)[O-])cc2)cs1` when you have a moment?
A: TRUE

Q: Hi team, can someone confirm the assay call for Cc1oc(-c2ccccc2)nc1CCC(=O)c1ccc(CC2SC(=O)NC2=O)cc1 (stereo not drawn) ?
A: TRUE

Q: Record request — test call for `O=C(O)c1cc(O)c2c(c1)C(=O)c1cccc(O)c1C2=O`
A: TRUE

Q: Check the results log: what was the call for `Cc1cccc(S(=O)(=O)O)c1C` ?
A: FALSE

Q: Could you check what this test reported for `CC(C)CCCCCCCCCCCCCCC(=O)O` ?
A: FALSE

Q: Could you please tell me the result logged for `CCN1/C(=C/C=C/c2sc3ccccc3[n+]2CC)Sc2ccccc21` in this assay?
A: TRUE

Q: Per the records of this test, what outcome belongs to `CC1(C)CCC(C)(C)c2cc(C(=O)Nc3ccc(C(=O)O)cc3)ccc21` ?
A: FALSE

Q: # fetch the recorded call for `O=[N+]([O-])c1cc(Cl)c(Cl)c(Cl)c1Cl` here
A: TRUE

Q: Just curious, what result did `N#CC1(c2ccc(F)cc2)CCC(=O)CC1` get here?
A: FALSE

Q: Outcome? `Oc1ccc2c(c1)-c1ccccc1C2`
A: TRUE

Q: Which outcome was assigned to `C[C@]12CCC(=O)C=C1CC[C@@H]1[C@@H]2[C@@H](O)C[C@@]2(C)[C@H]1CC[C@]2(O)C(=O)COC(=O)CCC(=O)O` in this test?
A: FALSE

Q: Hi team, can someone confirm the assay call for `C/C=C(\C)C(=O)OCc1ccccc1` ?
A: FALSE

Q: So what was the verdict on `CCCC/C=C/CCCCO` in this test?
A: FALSE

Q: Dear colleague, could you share the recorded outcome for `N=C1N=C(N)c2ccccc21` when you have a moment?
A: TRUE

Q: Assay result, entry `O=C1CCCCCN1SSN1CCCCCC1=O` — outcome?
A: FALSE

Q: Field: outcome | Entry: `CCCCCCCCOC(=O)c1ccc(O)cc1`
A: FALSE

Q: What classification did `Nc1ccc2cc(S(=O)(=O)O)cc(O)c2c1N=Nc1ccccc1C(F)(F)F` end up with in this test?
A: FALSE

Q: Which result was noted for this compound in the test: `CCCCCCCCCCC=O`
A: FALSE

Q: Please let me know the test result on file for `NC(=O)NS(=O)(=O)c1ccc(N)cc1` .
A: FALSE

Q: Per the records of this test, what outcome belongs to Cc1c(C)c2c(c(C)c1O)CCC(C)(COc1ccc(CC3SC(=O)NC3=O)cc1)O2 (stereo not drawn) ?
A: TRUE

Q: Test call for this compound, please: `CC(=O)SC[C@@H](Cc1ccccc1)C(=O)NCC(=O)OCc1ccccc1`
A: FALSE

Q: What did the test return for `O=C(O)c1c(Cl)cccc1Cl` ?
A: FALSE

Q: // param item: CC(C)(C)C1CCC(CC2=C(O)c3ccccc3C(=O)C2=O)CC1 (stereo not drawn) ; yields the recorded call
A: TRUE

Q: Tell me the assay call for `On1ccccc1=S` please.
A: TRUE

Q: Query: recorded result category for `Nc1c(Cl)cc(Cl)cc1Cl` in this test
A: FALSE

Q: Dear colleague, could you share the recorded outcome for CC(NN)c1ccccc1 (stereo not drawn) when you have a moment?
A: FALSE

Q: What call does the record list for CCCN(CCC)C(=O)C(CCC(=O)OCCCN1CCN(CCOC(=O)Cc2c(C)n(C(=O)c3ccc(Cl)cc3)c3ccc(OC)cc23)CC1)NC(=O)c1ccccc1 (stereo not drawn) ?
A: FALSE

Q: Which outcome did this test record for the compound `O=[N+]([O-])c1ccccc1Nc1ccccc1` ?
A: FALSE
